Listing of entries alongside the reported pIC50.
# tested system: purified EZH2 enzyme (Homo sapiens (Human))
Scale for pIC50: -log10 of concentration given in mol/L; no unit attached.

compound	tested system	result number
CCN(c1cc(Cl)c2c(c1Cl)C(=O)N(Cc1c(=O)[nH]c(C)c3ccoc13)CC2)C1CCOCC1	purified EZH2 enzyme (Homo sapiens (Human))	8.30
COC(c1cc(Cl)c2c(c1Cl)C(=O)N(Cc1c(=O)[nH]c(C)c3ccoc13)CC2)C1CS(=O)(=O)C1 (centres unmarked)	purified EZH2 enzyme (Homo sapiens (Human))	8.70
Cc1[nH]c(=O)c(CN2CCc3c(Cl)cc(N4CC5(CCOCC5)C4)c(Cl)c3C2=O)c2occc12	purified EZH2 enzyme (Homo sapiens (Human))	8.30
Cc1noc(C)c1-c1cc(Cl)c2c(c1Cl)C(=O)N(Cc1c(=O)[nH]c(C)c3[nH]ccc13)CC2	purified EZH2 enzyme (Homo sapiens (Human))	8.70
Cc1cc2c(C)[nH]c(=O)c(CN3CCc4c(Cl)cc(OC(C)C)c(Cl)c4C3=O)c2o1	purified EZH2 enzyme (Homo sapiens (Human))	7.02

Ask: For the compound Cc1[nH]c(=O)c(CN2CCc3c(Cl)cc(OC(C)C)c(Cl)c3C2=O)c2occc12 , give its measured pIC50 value.
Result: 8.22

----------
pIC50 data for purified EZH2 enzyme (Homo sapiens (Human)) follow.
Interpret pIC50 as the negative base-10 log of the concentration measured in mol/L.

molecule	pIC50
Cc1noc(C)c1-c1cc(Cl)c2c(c1Cl)C(=O)N(Cc1c(=O)[nH]c(C)c3ccoc13)CC2	8.52
COC(c1cc(Cl)c2c(c1Cl)C(=O)N(Cc1c(=O)[nH]c(C)c3[nH]ccc13)CC2)C1CN(C)C1 (centres unmarked)	8.00
Cc1[nH]c(=O)c(CN2CCc3ccc(OC(C)C)c(Cl)c3C2=O)c2occc12	8.15
Cc1[nH]c(=O)c(CN2CCc3c(Cl)cc(C(C)C4COC4)c(Cl)c3C2=O)c2cc[nH]c12 (centres unmarked)	8.70
Cc1[nH]c(=O)c(CN2CCc3c(Cl)cc(OC(C)C)c(Cl)c3C2=O)c2cc[nH]c12	6.69

Ask: Recall the reported pIC50 of COC(c1cc(Cl)c2c(c1Cl)C(=O)N(Cc1c(=O)[nH]c(C)c3[nH]ccc13)CC2)C1COC1 (centres unmarked) on purified EZH2 enzyme (Homo sapiens (Human)) and write it down.
Result: 9.00

Ask: Tell me its pIC50 on purified EZH2 enzyme (Homo sapiens (Human)): COC(c1cc(Cl)c2c(c1Cl)C(=O)N(Cc1c(=O)[nH]c(C)c3ccoc13)CC2)C1COC1 (centres unmarked)
Result: 8.40

The measurements presented in this section are drawn from patent US10266542B2.
